Minimal BChE residual activity by entry:
target: human butyrylcholine esterase (Homo sapiens, UniProt P06276); assay type: biochemical
Sequence (P06276 29-602): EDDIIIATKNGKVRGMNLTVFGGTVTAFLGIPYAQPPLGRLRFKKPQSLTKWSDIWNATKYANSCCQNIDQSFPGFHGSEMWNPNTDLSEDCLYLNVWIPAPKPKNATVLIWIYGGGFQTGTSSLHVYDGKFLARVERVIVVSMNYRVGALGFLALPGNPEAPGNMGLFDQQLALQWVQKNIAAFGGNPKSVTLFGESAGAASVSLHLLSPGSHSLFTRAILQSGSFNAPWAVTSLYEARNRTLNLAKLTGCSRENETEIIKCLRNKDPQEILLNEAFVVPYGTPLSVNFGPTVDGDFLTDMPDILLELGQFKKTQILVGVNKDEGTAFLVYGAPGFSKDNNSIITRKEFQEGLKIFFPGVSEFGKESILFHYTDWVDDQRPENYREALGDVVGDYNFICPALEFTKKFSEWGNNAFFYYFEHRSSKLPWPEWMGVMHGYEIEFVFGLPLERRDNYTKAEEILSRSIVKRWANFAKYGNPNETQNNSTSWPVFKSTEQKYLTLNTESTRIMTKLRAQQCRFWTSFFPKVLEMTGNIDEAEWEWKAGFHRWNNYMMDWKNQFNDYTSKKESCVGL

{"columns": ["MOLECULE", "ASSAY SYSTEM", "Minimal BChE residual activity"],
 "data": [
  ["CC(C)(C)c1ccccc1OP(=O)(Oc1ccccc1C(C)(C)C)Oc1ccccc1C(C)(C)C [tri-ortho-tert-butylphenyl phosphate]", "human butyrylcholine esterase (Homo sapiens, UniProt P06276)", ">100%"],
  ["CC(C)c1ccc(OP(=O)(Oc2ccc(C(C)C)cc2)Oc2ccc(C(C)C)cc2)cc1 [P2, Tri-para-isopropylphenyl phosphate]", "human butyrylcholine esterase (Homo sapiens, UniProt P06276)", ">100%"],
  ["CC(C)c1ccccc1OP(=O)(Oc1ccccc1C(C)C)Oc1ccccc1C(C)C [P3, Tri-ortho-isopropylphenyl phosphate]", "human butyrylcholine esterase (Homo sapiens, UniProt P06276)", "72.6%"],
  ["CC(C)(C)c1cccc(OP(=O)(Oc2cccc(C(C)(C)C)c2)Oc2cccc(C(C)(C)C)c2)c1 [tri-meta-tert-butylphenyl phosphate]", "human butyrylcholine esterase (Homo sapiens, UniProt P06276)", ">100%"]
]}
